- measured_target: recombinant homotrimeric HA A/South Carolina/1/18 H1N1 (Influenza A virus A/South Carolina/1/18 (H1N1))
- protocol_notes: protein microarray, purified IgG, trimeric HA
- condition_description: remark: other sources report otherwise
recorded_metric: Trimeric HA Binding: RLU (RLU)
Output spec: scalar in RLU, unitless text.

The examples below pair each entry with its known result.
TCN-536 (5095_N01) (antibody, V domains shown) VH: QVQLQQWGAGLLKPSETLSLTCAVYGGSFSVSGYYWSWIRQPPGRGLEWIGEISHGGSTNYNPSLKSRVTISVDTTKNQFSLRLSSVTAADTAVYYCARGTDPDTEVYCRVGNCAAFDYWGQGSLVTVSS VL: EIILAQSPGTLSLSPGERATLSCRASQFVSTRSLAWYQQRPGQAPRLLIYGASSRATGIPDRFSGSGSGTDFTLTISRLEPEDFAVYYCQHYGYSPRYAFGQGSKVEIK    160
TCN-545 (5082_I15) (antibody, V domains shown) VH: QVQLQQWGAGLLKPSETLSLSCAVFGGSFSDYYWTWIRQPPGKGLEWIGEIKHSGRTNYNPSLESRVTISVDTSKNQFSLKLSSVTAADTAIYYCARGTDPDTEGYCRSGSCSAFDFWGQGTLVTVSS VL: EIVLTQSPGTLSLSPGERATLSCRASHFVNYRSLAWYQQTPGQVPRLLIYGASTRATGIPDRFSGSGSGTDFTLTISRLEPEDFAVYFCQQYGGSPRYTFGQGTRLEIK    289

Now let's try a different one.
Q: Fill blank: measured Trimeric HA Binding: RLU of the binder TCN-557 (5081_A04) (antibody, V domains shown) VH: QVQLVQSGAEVKKPGASVKVSCKASGHTFTGYYIHWVRQAPGQGLEWMGWINPDSGATSSAQNFQGRVTMTGDTSSSTAYMELSRLSFDDTAVYYCARVLFTSPFDFWGEGTLVTVSS VL: QAVVTQEPSLAVSPGGTVTLTCGSSTGAVTRGHYPYWFQQKPGQAPRALIYDSAGNRHSWTPARFSGSLLGGKAALTLSGAQPEDEAEYYCLLSYSGVWVFGGGTKLTVL is ____.
Result: 3590

These measurements were taken from patent US20150086555A1.
